- condition info: 303.15 K; 101 kPa; Liquid; Capillary tube (Ostwald / Ubbelohde) method
readout: viscosity (mPa·s)

Looking up CCCCC(C)O (centres undefined) , I found its viscosity recorded as 3.41

(a) CCCCCC(C)O (centres undefined)
(b) CC(C)O
(c) CCC(C)O (centres undefined)
Put these in order: smallest viscosity first, largest last. Answer by naming the labels in the order asked.
b, c, a

----------
- condition info: 298.15 K; 101 kPa; Liquid; Capillary tube (Ostwald / Ubbelohde) method
readout: viscosity (mPa·s)

The examples below pair each entry with its known result.
Lab book: viscosity of CCCC(C)O (stereo not given) noted as 3.478

Lookup result for CCCCC(C)O (stereo not given) ; measured viscosity: 4.1

(1) CCCCCC(C)O (stereo not given)
(2) CC(C)O
(3) CCC(C)O (stereo not given)
Kindly order the items shown according to viscosity, from the highest value down. To answer, arrange all of the labels according to the requested order.
1, 3, 2
(1: 5.33 mPa·s, 3: 3.132 mPa·s, 2: 2.044 mPa·s)

----------
- condition info: 293.15 K; 101 kPa; Liquid; Capillary tube (Ostwald / Ubbelohde) method
readout: viscosity (mPa·s)

Notebook: CCC(C)O (stereo unspecified) [butan-2-ol] , viscosity read as 3.912

response.value for CCCCCC(C)O (stereo unspecified) [2-heptanol] (field: viscosity) = 6.52

Note to self: viscosity recorded for CCCCC(C)O (stereo unspecified) [2-hexanol] was 5.155

(P) CC(C)O [propan-2-ol]
(Q) CC#N [acetonitrile]
(R) CCCC(C)O (stereo unspecified) [pentan-2-ol]
Hey, quick one: sort these by viscosity, low to high? # the answer lists labels in the order requested
Q, P, R
(Q: 0.3542 mPa·s, P: 2.351 mPa·s, R: 4.298 mPa·s)

----------
- condition info: 298.15 K; 101 kPa; Liquid; Vibrating tube method
readout: mass density (kg/m3)

// sample CC(C)O , its mass density was 780.98

Form field mass density, entry CC#N : 776.64

Reported mass density ( CCCCCC(C)O (stereo unspecified) ) = 813.33

For this compound ( CCC(C)O (stereo unspecified) ), measured mass density is 802.56

Summary for this compound, CCCC(C)O (stereo unspecified) : mass density is 805.24

Memo: CCCCC(C)O (stereo unspecified) , reported mass density: 810.14

----------
- condition info: 308.15 K; 101 kPa; Liquid; Vibrating tube method
readout: mass density (kg/m3)

Value of mass density reported for the molecule CCCCC(C)O (stereo not given) [2-hexanol] is 802.06

Memo: CC(C)O [propan-2-ol] , reported mass density: 772.36

Sample CCC(C)O (stereo not given) [butan-2-ol] ; mass density observed: 793.96

Sample CCCCCC(C)O (stereo not given) [2-heptanol] ; mass density observed: 805.5

// field: mass density; key: CC#N [acetonitrile] ; value = 765.75

----------
- condition info: 303.15 K; 101 kPa; Liquid; Vibrating tube method
readout: mass density (kg/m3)

Entry CC#N [acetonitrile] , mass density reported as 771.21

So, CCC(C)O (stereo not given) [butan-2-ol] ? Its mass density was 798.26

For this compound ( CC(C)O [propan-2-ol] ), measured mass density is 776.71

Measured mass density of CCCCC(C)O (stereo not given) [2-hexanol] : 806.13

Recorded result, CCCCCC(C)O (stereo not given) [2-heptanol] , mass density: 809.44
